Taken from patent US5321041A.

experimental_system: 5-lipoxygenase (Cavia porcellus, UniProt A0A286X958)
Construct: crude enzyme fraction prepared from peritoneal exudated cells of guinea pigs; endogenous in cells
Sequence (A0A286X958 1-674): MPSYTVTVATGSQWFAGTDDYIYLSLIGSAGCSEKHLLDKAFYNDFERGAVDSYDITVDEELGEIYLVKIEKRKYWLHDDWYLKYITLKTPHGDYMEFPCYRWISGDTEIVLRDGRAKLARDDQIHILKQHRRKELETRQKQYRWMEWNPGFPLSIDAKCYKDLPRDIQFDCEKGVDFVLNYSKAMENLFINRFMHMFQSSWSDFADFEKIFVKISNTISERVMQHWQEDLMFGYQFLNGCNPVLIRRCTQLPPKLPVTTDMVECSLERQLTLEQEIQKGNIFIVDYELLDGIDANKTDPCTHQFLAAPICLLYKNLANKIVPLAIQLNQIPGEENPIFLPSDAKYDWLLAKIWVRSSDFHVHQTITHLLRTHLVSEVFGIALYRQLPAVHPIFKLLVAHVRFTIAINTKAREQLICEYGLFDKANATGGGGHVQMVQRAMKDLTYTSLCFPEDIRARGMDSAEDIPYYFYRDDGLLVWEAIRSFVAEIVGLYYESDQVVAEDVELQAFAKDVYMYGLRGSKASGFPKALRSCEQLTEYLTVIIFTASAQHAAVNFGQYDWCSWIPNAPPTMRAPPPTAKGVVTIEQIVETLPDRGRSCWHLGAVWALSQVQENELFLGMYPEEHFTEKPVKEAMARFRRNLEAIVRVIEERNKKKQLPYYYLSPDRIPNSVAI
test: Inhibitory activity on 5-lipoxygenase
cond: 5-HETE generation, 20 μM 14C-arachidonic acid, pH 7.4, 37° C., 10 minutes
measure: IC50 (nM)

[[record]]
molecule = "CCc1ccc(-c2cc(-c3ccc(OC)cc3)c(-c3ccc(OC)cc3)o2)n1CC(=O)O [Compound 109]"
number = 850

[[record]]
molecule = "COc1ccc(-c2cc(-c3ccc(C)n3CC(=O)O)oc2-c2ccc(OC)cc2)cc1 [Compound 192]"
number = 910

[[record]]
molecule = "CCCc1ccc(-c2cc(-c3ccc(OC)cc3)c(-c3ccc(OC)cc3)o2)n1CC(=O)O [Compound 195]"
number = 910

[[record]]
molecule = "COc1ccc(-c2cc(-c3cc(C(C)C)cn3CC(=O)O)oc2-c2ccc(OC)cc2)cc1 [Compound 188]"
number = 1110

[[record]]
molecule = "CCc1cc(-c2cc(-c3ccc(OC)cc3)c(-c3ccc(OC)cc3)o2)n(CC(=O)O)c1 [Compound 185]"
number = 1000


* * *

Test system: platelet aggregation (platelet rich plasma)
test: Inhibitory activity on platelet aggregation
Type: cell-based, Japanese native white domestic rabbits
cond: Oryctolagus cuniculus, collagen (5 μg/ml), rabbit PRP, 37° C., read-out: IC50 against platelet aggregation induced by collagen
measure: IC50 (µM)

[[record]]
mol_smiles = "CCc1ccc(-c2cc(-c3ccc(OC)cc3)c(-c3ccc(OC)cc3)o2)n1CC(=O)O"
number = 13.3


* * *

Target chain: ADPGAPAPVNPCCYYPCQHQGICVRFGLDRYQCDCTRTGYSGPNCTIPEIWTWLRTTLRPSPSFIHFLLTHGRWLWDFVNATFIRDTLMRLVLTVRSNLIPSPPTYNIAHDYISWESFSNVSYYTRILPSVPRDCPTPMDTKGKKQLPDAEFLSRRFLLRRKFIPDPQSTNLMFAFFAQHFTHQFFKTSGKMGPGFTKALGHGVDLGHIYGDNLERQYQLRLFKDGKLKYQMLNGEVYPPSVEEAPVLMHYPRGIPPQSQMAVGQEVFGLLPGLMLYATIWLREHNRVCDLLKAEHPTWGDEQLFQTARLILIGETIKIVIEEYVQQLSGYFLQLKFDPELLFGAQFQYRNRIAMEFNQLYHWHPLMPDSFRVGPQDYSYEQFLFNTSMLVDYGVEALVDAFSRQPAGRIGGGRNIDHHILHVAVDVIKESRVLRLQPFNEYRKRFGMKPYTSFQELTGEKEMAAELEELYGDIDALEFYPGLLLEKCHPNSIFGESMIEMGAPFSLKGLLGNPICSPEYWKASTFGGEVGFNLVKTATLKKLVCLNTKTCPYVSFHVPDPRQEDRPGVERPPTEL
pIC50: −log10 of the molar value.
measure: pIC50

[[record]]
compound = "COc1ccc(-c2cc(-c3cccn3CC(=O)O)oc2-c2ccc(OC)cc2)cc1"
number = 7.16

[[record]]
compound = "COc1ccc(-c2oc(-c3cccn3CC(=O)O)c(C)c2-c2ccc(OC)cc2)cc1"
number = 7.12

[[record]]
compound = "COc1ccc(-c2cc(-c3ccc(C)n3CC(=O)O)oc2-c2ccc(OC)cc2)cc1"
number = 7.24

[[record]]
compound = "CCc1cc(-c2cc(-c3ccc(OC)cc3)c(-c3ccc(OC)cc3)o2)n(CC(=O)O)c1"
number = 7.02

[[record]]
compound = "COc1ccc(-c2oc(-c3cccn3CC(=O)O)cc2-c2ccccc2)cc1"
number = 7.09

[[record]]
compound = "COc1ccc(-c2cc(-c3cccn3C(C)C(=O)O)oc2-c2ccc(OC)cc2)cc1 (stereo not drawn)"
number = 6.95


* * *

System: platelet aggregation (platelet rich plasma)
test: Inhibitory activity on platelet aggregation
Type: cell-based, Japanese native white domestic rabbits
cond: Oryctolagus cuniculus, arachidonic acid (250 μM), rabbit PRP, 37° C., read-out: IC50 against platelet aggregation induced by arachidonic acid
measure: IC50 (µM)

[[record]]
mol_smiles = "CCc1ccc(-c2cc(-c3ccc(OC)cc3)c(-c3ccc(OC)cc3)o2)n1CC(=O)O"
measure = "IC50"
unit = "µM"
number = 1.5


* * *

The entries below are paired with their reported Dead Mice/Total Mice.
System: ddY mice
test: Acute toxicity
Format: in vivo
cond: mouse, oral, 600 mg/kg, observed for 2 weeks
measure: Dead Mice/Total Mice

[[record]]
mol_smiles = "COc1ccc(-c2cc(-c3cccn3CC(=O)O)oc2-c2ccc(OC)cc2)cc1"
measure = "Dead Mice/Total Mice"
result = "1/5"

[[record]]
mol_smiles = "COc1ccc(-c2cc(-c3ccc(C)n3CC(=O)O)oc2-c2ccc(OC)cc2)cc1"
measure = "Dead Mice/Total Mice"
result = "0/5"

[[record]]
mol_smiles = "CCc1ccc(-c2cc(-c3ccc(OC)cc3)c(-c3ccc(OC)cc3)o2)n1CC(=O)O"
measure = "Dead Mice/Total Mice"
result = "0/5"

[[record]]
mol_smiles = "COc1ccc(-c2cc(-c3cc(C(C)C)cn3CC(=O)O)oc2-c2ccc(OC)cc2)cc1"
measure = "Dead Mice/Total Mice"
result = "4/5"


* * *

System: auricle edema induced by arachidonic acid
test: Inhibitory activity on auricle edema induced by arachidonic acid
Type: in vivo, ddY mice
cond: mouse, oral, 30 mg/kg, 1 hour after arachidonic acid
The entries below are paired with their reported Inhibition on Edema (%).
measure: Inhibition on Edema (%)

[[record]]
compound = "COc1ccc(-c2cc(-c3cccn3C(C)C(=O)O)oc2-c2ccc(OC)cc2)cc1 (centres unmarked)"
experimental_system = "auricle edema induced by arachidonic acid"
number = 30.6

[[record]]
compound = "COc1ccc(-c2cc(-c3cc(C(C)C)cn3CC(=O)O)oc2-c2ccc(OC)cc2)cc1"
experimental_system = "auricle edema induced by arachidonic acid"
number = 55.0

[[record]]
compound = "COc1ccc(-c2cc(-c3cccn3CC(=O)O)oc2-c2ccc(OC)cc2)cc1"
experimental_system = "auricle edema induced by arachidonic acid"
number = 50.6

[[record]]
compound = "CCCc1ccc(-c2cc(-c3ccc(OC)cc3)c(-c3ccc(OC)cc3)o2)n1CC(=O)O"
experimental_system = "auricle edema induced by arachidonic acid"
number = 43.9

[[record]]
compound = "O=C(O)Cn1cccc1-c1cc(-c2ccccc2)c(-c2ccccc2)o1"
experimental_system = "auricle edema induced by arachidonic acid"
number = 41.9

